- Tested on: K. pneumoniae UFR68 (TEM-1, SHV-11, CTX-M-15, KPC-3)
- test: MIC of compounds alone, broth microdilution
- Type: cell-based
- conditionContext: Klebsiella pneumoniae, read-out: MIC compounds of the invention alone
reportedEndpoint: MIC

compound="O=C1N2CC=C(c3cnoc3)C(C2)N1OS(=O)(=O)[O-].[Na+] (stereo not shown) [Example 5]" result="> 32 µg/mL"
compound="O=C1N2CC(c3ncco3)=C[C@H](C2)N1OS(=O)(=O)[O-].[Na+] [Example 44]" result="4 µg/mL"
compound="O=C1N2CC=C(c3cnco3)C(C2)N1OS(=O)(=O)[O-].[Na+] (stereo not shown) [Example 3]" result="> 32 µg/mL"
compound="O=C1N2CC(c3ncco3)=C[C@H](C2)N1OC(F)(F)C(=O)O (racemic) [Example 37]" result="4 µg/mL"
compound="Cn1ncc(C2=CCN3CC2N(OS(=O)(=O)[O-])C3=O)cc1=O.[Na+] (stereo not shown) [Example 19]" result="> 32 µg/mL"
compound="O=C1N2CC=C(c3cnoc3)C(C2)N1OC(F)(F)C(=O)[O-].[Li+] (stereo not shown) [Example 6]" result="> 32 µg/mL"
compound="Cn1cc(C2=CCN3CC2N(OS(=O)(=O)[O-])C3=O)cnc1=O.[Na+] (stereo not shown) [Example 15]" result="> 32 µg/mL"

---

- targetEntity: CTX-M-15 (Escherichia coli)
- Construct: made in house; host or cells: E. coli
- Sequence (Q9EXV5 entry or part of it): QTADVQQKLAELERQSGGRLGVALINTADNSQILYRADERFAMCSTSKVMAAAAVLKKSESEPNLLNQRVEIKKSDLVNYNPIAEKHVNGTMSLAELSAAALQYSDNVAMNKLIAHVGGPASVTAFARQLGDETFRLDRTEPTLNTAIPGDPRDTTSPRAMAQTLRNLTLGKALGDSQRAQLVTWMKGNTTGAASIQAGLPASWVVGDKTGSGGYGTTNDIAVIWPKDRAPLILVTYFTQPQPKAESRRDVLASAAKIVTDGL
- test: β-lactamase inhibitory activity, determination of IC50 (nitrocefin hydrolysis)
- Assay type: biochemical
- conditionContext: class (A); nitrocefin 200 μM, 30 min pre-incubation; read-out: IC50 β-lactamase CTX-M-15
pIC50: −log10 of the molar value.
Please mark yes (1) if the recorded pIC50 is equal to or greater than 8, and no (0) if it falls below.

compound="O=C1N2CC=C(c3cnccn3)C(C2)N1OS(=O)(=O)[O-].[Na+] (centres unmarked) [Example 12]" assignedclass="yes (1)"
compound="O=C1N2CC=C(c3cnsc3)C(C2)N1OS(=O)(=O)[O-].[Na+] (centres unmarked) [Example 29, sulfate]" assignedclass="yes (1)"
compound="O=C1N2CC(c3ncon3)=CC(C2)N1OS(=O)(=O)[O-].[Na+] (centres unmarked) [Example 36, sulfate]" assignedclass="yes (1)"
compound="O=C1N2CC=C(c3cn[nH]c3)C(C2)N1OS(=O)(=O)[O-].[Na+] (centres unmarked) [Example 1, sulfate]" assignedclass="no (0)"

---

- targetEntity: OXA-11 (Pseudomonas aeruginosa, UniProt Q06778)
- Construct: made in house; host or cells: E. coli
- Sequence (Q06778 21-266): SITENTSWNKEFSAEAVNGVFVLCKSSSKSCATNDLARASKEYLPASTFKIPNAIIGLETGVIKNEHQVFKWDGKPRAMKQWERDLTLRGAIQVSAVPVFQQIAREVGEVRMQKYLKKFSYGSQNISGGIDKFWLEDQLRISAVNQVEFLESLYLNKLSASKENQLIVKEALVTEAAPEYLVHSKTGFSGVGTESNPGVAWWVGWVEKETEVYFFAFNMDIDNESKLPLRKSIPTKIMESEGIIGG
- test: β-lactamase inhibitory activity, determination of IC50 (nitrocefin hydrolysis)
- Type: biochemical
Threshold-based label: IC50 under 600 nM gives True, IC50 not under 600 nM gives False.

compound="O=C1N2CC=C(c3cncnc3)C(C2)N1OS(=O)(=O)[O-].[Na+] (centres unmarked) [Example 10, sulfate]" targetentity="OXA-11 (Pseudomonas aeruginosa, UniProt Q06778)" assignedclass=False
compound="O=C1N2CC=C(c3cnccn3)C(C2)N1OS(=O)(=O)[O-].[Na+] (centres unmarked)" targetentity="OXA-11 (Pseudomonas aeruginosa, UniProt Q06778)" assignedclass=False
compound="NCc1cnc(C2=CC3CN(C2)C(=O)N3OS(=O)(=O)O)s1 (centres unmarked)" targetentity="OXA-11 (Pseudomonas aeruginosa, UniProt Q06778)" assignedclass=True
compound="Cn1c(C2=CCN3CC2N(OS(=O)(=O)[O-])C3=O)cccc1=O.[Na+] (centres unmarked) [Example 18, sulfate]" targetentity="OXA-11 (Pseudomonas aeruginosa, UniProt Q06778)" assignedclass=True
compound="Cn1nccc1C1=CCN2CC1N(OS(=O)(=O)[O-])C2=O.[Na+] (centres unmarked) [Example 2, sulfate]" targetentity="OXA-11 (Pseudomonas aeruginosa, UniProt Q06778)" assignedclass=False
compound="O=C1N2CC(c3cnco3)=CC(C2)N1OS(=O)(=O)[O-].[Na+] (centres unmarked)" targetentity="OXA-11 (Pseudomonas aeruginosa, UniProt Q06778)" assignedclass=True
compound="COc1ncc(C2=CC3CN(C2)C(=O)N3OS(=O)(=O)[O-])s1.[Na+] (centres unmarked) [Example 39, sulfate]" targetentity="OXA-11 (Pseudomonas aeruginosa, UniProt Q06778)" assignedclass=True
compound="O=C1N2CC(c3nc4ccccc4s3)=CC(C2)N1OS(=O)(=O)[O-].[Na+] (centres unmarked) [Example 27, sulfate]" targetentity="OXA-11 (Pseudomonas aeruginosa, UniProt Q06778)" assignedclass=True

---

- targetEntity: OXA-11 (Pseudomonas aeruginosa)
- Construct: made in house; host or cells: E. coli
- test: β-lactamase inhibitory activity, determination of IC50 (nitrocefin hydrolysis)
- Format: biochemical
- conditionContext: class (D); nitrocefin 200 μM, 30 min pre-incubation; read-out: IC50 β-lactamase OXA-11
pIC50: −log10 of the molar value.
reportedEndpoint: pIC50

compound="COC(=O)c1ncsc1C1=CCN2CC1N(OS(=O)(=O)[O-])C2=O.[Na+] (stereo not shown) [Example 22]" quantitativereadout=6.43

---

- targetEntity: OXA-15 (Pseudomonas aeruginosa, UniProt Q51574)
- Construct: made in house; host or cells: E. coli
- Sequence (Q51574 22-275): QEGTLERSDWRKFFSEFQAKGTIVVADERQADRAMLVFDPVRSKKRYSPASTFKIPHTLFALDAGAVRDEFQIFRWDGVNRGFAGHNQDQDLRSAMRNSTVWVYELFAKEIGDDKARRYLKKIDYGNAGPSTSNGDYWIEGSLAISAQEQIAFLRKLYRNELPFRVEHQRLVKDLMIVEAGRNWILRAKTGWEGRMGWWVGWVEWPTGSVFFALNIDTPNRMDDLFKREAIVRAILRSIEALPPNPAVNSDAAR
- test: biochemical
- conditionContext: class (D); nitrocefin 200 μM, 30 min pre-incubation; read-out: IC50 β-lactamase OXA-15
pIC50: −log10 of the molar value.
reportedEndpoint: pIC50

molecule="COC(=O)c1ncsc1C1=CCN2CC1N(OS(=O)(=O)[O-])C2=O.[Na+] (stereo not shown)" reportedendpoint=pIC50 quantitativereadout=7.92

---

- Test system: K. pneumoniae 160143 (TEM-1, SHV-1, CTX-M-15, KPC-2, OXA-1)
- test: MIC of compounds alone, broth microdilution
- Format: cell-based
- conditionContext: Klebsiella pneumoniae, read-out: MIC compounds of the invention alone
reportedEndpoint: MIC

compound="O=C1N2CC(c3ncco3)=C[C@H](C2)N1OS(=O)(=O)[O-].[Na+] [Example 44]" reportedendpoint=MIC result="1 µg/mL"
compound="Cn1ncc(C2=CCN3CC2N(OS(=O)(=O)[O-])C3=O)cc1=O.[Na+] (stereo not shown) [Example 19]" reportedendpoint=MIC result="> 32 µg/mL"
compound="O=C1N2CC=C(c3cnoc3)C(C2)N1OC(F)(F)C(=O)[O-].[Li+] (stereo not shown) [Example 6]" reportedendpoint=MIC result="> 32 µg/mL"
compound="NCc1cnc(C2=CC3CN(C2)C(=O)N3OS(=O)(=O)O)s1 (stereo not shown) [Example 38]" reportedendpoint=MIC result="8 µg/mL"
compound="O=C1N2CC(c3ccncc3)=CC(C2)N1OS(=O)(=O)[O-].[Na+] (stereo not shown) [Example 33]" reportedendpoint=MIC result="8 µg/mL"
compound="O=C1N2CC(c3ncco3)=CC(C2)N1OS(=O)(=O)[O-].[Na+] (stereo not shown) [Example 25]" reportedendpoint=MIC result="4 µg/mL"
compound="O=C1N2CC=C(c3cnoc3)C(C2)N1OS(=O)(=O)[O-].[Na+] (stereo not shown) [Example 5]" reportedendpoint=MIC result="> 32 µg/mL"
compound="Cn1cc(C2=CCN3CC2N(OS(=O)(=O)[O-])C3=O)cnc1=O.[Na+] (stereo not shown) [Example 15]" reportedendpoint=MIC result="> 32 µg/mL"
compound="O=C1N2CC(c3ncco3)=C[C@H](C2)N1OC(F)(F)C(=O)O (racemic) [Example 37]" reportedendpoint=MIC result="4 µg/mL"
compound="O=C1N2CC=C(c3cnco3)C(C2)N1OS(=O)(=O)[O-].[Na+] (stereo not shown) [Example 3]" reportedendpoint=MIC result="> 32 µg/mL"

---

- targetEntity: AmpC P. aeruginosa (Pseudomonas aeruginosa, UniProt P24735)
- Sequence (P24735 27-397): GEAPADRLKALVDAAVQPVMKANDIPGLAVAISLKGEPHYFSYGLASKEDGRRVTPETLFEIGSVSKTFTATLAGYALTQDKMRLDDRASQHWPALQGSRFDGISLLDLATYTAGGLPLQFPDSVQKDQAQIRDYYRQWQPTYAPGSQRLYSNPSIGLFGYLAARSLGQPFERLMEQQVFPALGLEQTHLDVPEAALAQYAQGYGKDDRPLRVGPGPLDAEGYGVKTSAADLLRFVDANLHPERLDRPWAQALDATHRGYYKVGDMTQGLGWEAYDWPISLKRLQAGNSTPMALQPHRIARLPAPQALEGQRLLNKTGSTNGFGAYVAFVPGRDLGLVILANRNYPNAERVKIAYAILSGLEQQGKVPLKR
- test: β-lactamase inhibitory activity, determination of IC50 (nitrocefin hydrolysis)
reportedEndpoint: log10 IC50 (log10 of the value in µM)

molecule="Cn1cc(C2=CC3CN(C2)C(=O)N3OS(=O)(=O)[O-])ccc1=O.[Na+] (stereo not drawn) [Example 28, sulfate]" reportedendpoint="log10 IC50" quantitativereadout=-0.28
molecule="O=C1N2CC(c3cn[nH]c3)=CC(C2)N1OS(=O)(=O)[O-].[Na+] (stereo not drawn) [Example 43, sulfate]" reportedendpoint="log10 IC50" quantitativereadout=-0.36
molecule="COc1ncc(C2=CCN3CC2N(OS(=O)(=O)[O-])C3=O)cn1.[Na+] (stereo not drawn) [Example 24, sulfate]" reportedendpoint="log10 IC50" quantitativereadout=0.15
molecule="O=C1N2CC=C(c3ccns3)C(C2)N1OS(=O)(=O)[O-].[Na+] (stereo not drawn) [Example 30, sulfate]" reportedendpoint="log10 IC50" quantitativereadout=-0.11
molecule="O=C1N2CC(c3ccccn3)=CC(C2)N1OS(=O)(=O)[O-].[Na+] (stereo not drawn)" reportedendpoint="log10 IC50" quantitativereadout=-1.12
molecule="O=C1N2CC=C(c3cnccn3)C(C2)N1OS(=O)(=O)[O-].[Na+] (stereo not drawn)" reportedendpoint="log10 IC50" quantitativereadout=0.20
molecule="O=C1N2CC(c3ncco3)=CC(C2)N1OS(=O)(=O)[O-].[Na+] (stereo not drawn)" reportedendpoint="log10 IC50" quantitativereadout=-1.01
molecule="O=C1N2CC(c3cnco3)=CC(C2)N1OS(=O)(=O)[O-].[Na+] (stereo not drawn)" reportedendpoint="log10 IC50" quantitativereadout=-0.68
molecule="Cn1cc(C2=CCN3CC2N(OS(=O)(=O)[O-])C3=O)c(=O)n(C)c1=O.[Na+] (stereo not drawn) [Example 23, sulfate]" reportedendpoint="log10 IC50" quantitativereadout=0.20
molecule="O=C1N2CC=C(c3cnsc3)C(C2)N1OS(=O)(=O)[O-].[Na+] (stereo not drawn) [Example 29, sulfate]" reportedendpoint="log10 IC50" quantitativereadout=0.08
molecule="O=C1N2CC(c3ncon3)=CC(C2)N1OS(=O)(=O)[O-].[Na+] (stereo not drawn) [Example 36, sulfate]" reportedendpoint="log10 IC50" quantitativereadout=-0.80
molecule="Cn1cnc(C2=CCN3CC2N(OS(=O)(=O)[O-])C3=O)cc1=O.[Na+] (stereo not drawn) [Example 20, sulfate]" reportedendpoint="log10 IC50" quantitativereadout=0.51
molecule="O=C1N2CC=C(c3cn[nH]c3)C(C2)N1OS(=O)(=O)[O-].[Na+] (stereo not drawn) [Example 1, sulfate]" reportedendpoint="log10 IC50" quantitativereadout=0.97
molecule="O=C1N2CC(c3ccncc3)=CC(C2)N1OS(=O)(=O)[O-].[Na+] (stereo not drawn)" reportedendpoint="log10 IC50" quantitativereadout=-1.05
molecule="O=C1N2CC(c3ncco3)=C[C@H](C2)N1OS(=O)(=O)[O-].[Na+] [Example 44, sulfate]" reportedendpoint="log10 IC50" quantitativereadout=-1.12
molecule="Cn1ncc(C2=CCN3CC2N(OS(=O)(=O)[O-])C3=O)cc1=O.[Na+] (stereo not drawn) [Example 19, sulfate]" reportedendpoint="log10 IC50" quantitativereadout=0.26
molecule="O=C1N2CC(n3ccnc3)=CC(C2)N1OS(=O)(=O)[O-].[Na+] (stereo not drawn)" reportedendpoint="log10 IC50" quantitativereadout=-0.30
molecule="NCc1cnc(C2=CC3CN(C2)C(=O)N3OS(=O)(=O)O)s1 (stereo not drawn)" reportedendpoint="log10 IC50" quantitativereadout=-0.49
molecule="Cn1c(C2=CCN3CC2N(OS(=O)(=O)[O-])C3=O)cccc1=O.[Na+] (stereo not drawn) [Example 18, sulfate]" reportedendpoint="log10 IC50" quantitativereadout=0.43
molecule="Cn1nc(C2=CCN3CC2N(OS(=O)(=O)[O-])C3=O)ccc1=O.[Na+] (stereo not drawn) [Example 17, sulfate]" reportedendpoint="log10 IC50" quantitativereadout=-0.04
molecule="O=C1N2CC=C(c3ccncc3)C(C2)N1OS(=O)(=O)[O-].[Na+] (stereo not drawn)" reportedendpoint="log10 IC50" quantitativereadout=0.34
